Ref: ChEMBL document CHEMBL1687720

In this section, each of the molecules is paired with its reported pIC50.
# Tested on: Plasmodium falciparum
# PROTOCOL TEXT: Antiplasmodial activity against chloroquine-resistant Plasmodium falciparum Dd2
# Type: functional, organism-based
A value of pIC50 is the negative decimal logarithm of a concentration given in moles per litre.

INSERT INTO measurements (structure_notation, recorded_metric, reported_measurement) VALUES
  ('O=c1oc2c(O)c(O)c(O)c3c(=O)oc4c(O)c(O)c(O)c1c4c23', 'pIC50', 6.94),
  ('O=c1oc2c(O)c(O)c(O)c3c(=O)oc4c(O)c(O)cc1c4c23', 'pIC50', 6.73);

Shifting focus to the molecule that follows.
Requested read-out pIC50, target or system Plasmodium falciparum, entry O=c1oc2c(O)c(O)cc3c(=O)oc4c(O)c(O)cc1c4c23
6.45
